system: AG006 E. coli BM13; test: Standard MIC assay, AG006; assay type: cell-based, Escherichia coli
endpoint-name: Minimal inhibitory concentrations AG006

Minimal inhibitory concentrations AG006 recorded for this compound, NC[C@@H]1O[C@H](O[C@H]2[C@@H](O)[C@H](O[C@@H]3[C@@H](O)[C@H](N)C[C@H](N)[C@H]3O[C@H]3O[C@@H]4CO[C@@H](CCc5ccccc5)O[C@H]4[C@H](O)[C@H]3N)O[C@@H]2CO)[C@H](N)[C@@H](O)[C@@H]1O [Compound 5.25] , is 16 to 32 µg/mL

Minimal inhibitory concentrations AG006 recorded for this compound, NC[C@@H]1O[C@H](O[C@H]2[C@@H](O)[C@H](O[C@@H]3[C@@H](O)[C@H](N)C[C@H](N)[C@H]3O[C@H]3O[C@H](CO)[C@@H](OCCCc4ccccc4)[C@H](O)[C@H]3N)O[C@@H]2CO)[C@H](N)[C@@H](O)[C@@H]1O [Compound 19c, 4′-p-(3-phenylpropyl)paromomycin] , is 8 to 16 µg/mL

Minimal inhibitory concentrations AG006 recorded for this compound, NC[C@@H]1O[C@H](O[C@H]2[C@@H](O)[C@H](O[C@@H]3[C@@H](O)[C@H](N)C[C@H](N)[C@H]3O[C@H]3O[C@@H]4CO[C@@H](c5ccc6ccccc6c5)O[C@H]4[C@H](O)[C@H]3N)O[C@@H]2CO)[C@H](N)[C@@H](O)[C@@H]1O [Compound 5.20, 4′,6′-O-2-Naphthylideneparomomycin] , is 8 to 16 µg/mL

Minimal inhibitory concentrations AG006 recorded for this compound, NC[C@@H]1O[C@H](O[C@H]2[C@@H](O)[C@H](O[C@@H]3[C@@H](O)[C@H](N)C[C@H](N)[C@H]3O[C@H]3O[C@H](CO)[C@@H](OCc4ccc(Cl)cc4)[C@H](O)[C@H]3N)O[C@@H]2CO)[C@H](N)[C@@H](O)[C@@H]1O [Compound 19a, 4′-p-chlorobenzylparomomycin] , is 8 to 16 µg/mL

----------
System: AG015 S. aureus BM3002 (ANT4′)
Assay: Standard MIC assay, AG015
Type: cell-based, Staphylococcus aureus
Conditions: S. aureus BM3002 (ANT4′)
Experimental: Selected compounds of the present invention were tested for antibiotic susceptibility using clinical isolates of Staphylococci, Enterococci and Escherichia coli as well as strains carrying defined resistance determinants and compared to well known antibiotics of the state of the art. Drug susceptibility was determined in standard MIC assays, i.e. by determination of the minimal drug concentration required to inhibit bacterial growth in vitro.
endpoint-name: Minimal inhibitory concentrations AG015

Minimal inhibitory concentrations AG015 recorded for this compound, NC[C@@H]1O[C@H](O[C@H]2[C@@H](O)[C@H](O[C@@H]3[C@@H](O)[C@H](N)C[C@H](N)[C@H]3O[C@H]3O[C@H](CO)[C@@H](OCc4ccc(Cl)cc4)[C@H](O)[C@H]3N)O[C@@H]2CO)[C@H](N)[C@@H](O)[C@@H]1O [Compound 19a, 4′-p-chlorobenzylparomomycin] , is 8 to 16 µg/mL

Minimal inhibitory concentrations AG015 recorded for this compound, NC[C@@H]1O[C@H](O[C@H]2[C@@H](O)[C@H](O[C@@H]3[C@@H](O)[C@H](N)C[C@H](N)[C@H]3O[C@H]3O[C@@H]4CO[C@@H](c5ccccc5)O[C@H]4[C@H](O)[C@H]3N)O[C@@H]2CO)[C@H](N)[C@@H](O)[C@@H]1O , is 32 to 64 µg/mL

Minimal inhibitory concentrations AG015 recorded for this compound, NC[C@@H]1O[C@H](O[C@H]2[C@@H](O)[C@H](O[C@@H]3[C@@H](O)[C@H](N)C[C@H](N)[C@H]3O[C@H]3O[C@@H]4COC(C=Cc5ccccc5)O[C@H]4[C@H](O)[C@H]3N)O[C@@H]2CO)[C@H](N)[C@@H](O)[C@@H]1O (stereo partly shown) , is 16 to 32 µg/mL

Minimal inhibitory concentrations AG015 recorded for this compound, NC[C@@H]1O[C@H](O[C@H]2[C@@H](O)[C@H](O[C@@H]3[C@@H](O)[C@H](N)C[C@H](N)[C@H]3O[C@H]3O[C@@H]4CO[C@@H](CCc5ccccc5)O[C@H]4[C@H](O)[C@H]3N)O[C@@H]2CO)[C@H](N)[C@@H](O)[C@@H]1O , is 8 to 16 µg/mL
